Provenance of the data: paper PMC10539501

target: pepsin (Sus scrofa, UniProt P00791); test: in vitro; settings: simulated gastric fluid, pH 1.2
Sequence (P00791 60-385): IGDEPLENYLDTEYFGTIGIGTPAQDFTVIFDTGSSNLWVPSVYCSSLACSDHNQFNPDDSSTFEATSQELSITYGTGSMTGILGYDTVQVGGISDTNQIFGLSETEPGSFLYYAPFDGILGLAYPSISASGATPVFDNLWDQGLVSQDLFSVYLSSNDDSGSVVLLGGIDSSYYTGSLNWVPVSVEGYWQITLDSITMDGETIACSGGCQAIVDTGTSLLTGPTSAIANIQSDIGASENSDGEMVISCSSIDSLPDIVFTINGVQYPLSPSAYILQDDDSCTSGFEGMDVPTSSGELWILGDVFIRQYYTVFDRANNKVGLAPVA
Non-standard residues stand in square brackets, D forms with d. Residues, ends and D or L forms follow the SMILES beside them. NMeL = CN[C@@H](CC(C)C)C(=O)O
Hi there, I'd appreciate the recorded remaining at 1 h for every entry that follows.

Fill in: remaining at 1 h of CC(C)C[C@@H]1NC(=O)[C@H](Cc2ccc(O)cc2)NC(=O)[C@H]2CCCN2C(=O)[C@H](CC(C)C)NC(=O)[C@H](CC(C)C)N(C)C(=O)[C@@H](CC(C)C)NC1=O [10h] (cyclo(L[dL][NMeL]L[dP]Y)) is ___
57%

Given the entry CC(C)C[C@@H]1NC(=O)[C@@H](CC(C)C)NC(=O)[C@H](CC(C)C)N(C)C(=O)[C@H](Cc2ccc(O)cc2)NC(=O)[C@H]2CCCN2C(=O)[C@H](CC(C)C)NC1=O [10k] (cyclo(LL[dP]Y[NMeL][dL])) , report its measured remaining at 1 h.
65%

* * *

assay: in vitro; conditions: pig, simulated intestinal fluid
Starred links: 1 amine or outer side, 2 acyl side, 3 side chain; linkers in the order of their positions; H or OH if unused. Non-standard residues stand in square brackets, D forms with d. Residues, ends and D or L forms follow the SMILES beside them. X1 = CC(C)C[C@H](NC(=S)[C@H](Cc1ccc(O)cc1)N[*:1])C(=O)[*:2]; X2 = CC(C)C[C@H](NC(=S)[C@@H](CC(C)C)N[*:1])C(=O)[*:2]; X3 = CC(C)C[C@H](N[*:1])C(=S)N[C@H](CC(C)C)C(=O)[*:2]
Hi there, I'd appreciate the recorded remaining at 24 h for every entry that follows.
Give your result in % as a bare value.

Query: remaining at 24 h; subject: CC(C)C[C@@H]1NC(=O)[C@@H](CC(C)C)NC(=O)[C@H](CC(C)C)NC(=S)[C@H](Cc2ccc(O)cc2)NC(=O)[C@H]2CCCN2C(=O)[C@H](CC(C)C)NC1=O [10e] (cyclo(LL[dP][X1][dL]))
19.9

Record request: remaining at 24 h value, item CC(C)C[C@@H]1NC(=O)[C@@H](CC(C)C)NC(=S)[C@H](CC(C)C)NC(=O)[C@H](Cc2ccc(O)cc2)NC(=O)[C@H]2CCCN2C(=O)[C@H](CC(C)C)NC1=O [10f] (cyclo(LL[dP]Y[X3]))
17.2

Need remaining at 24 h, item CC(C)C[C@@H]1NC(=O)[C@H](Cc2ccc(O)cc2)NC(=O)[C@H]2CCCN2C(=O)[C@H](CC(C)C)NC(=O)[C@H](CC(C)C)NC(=S)[C@@H](CC(C)C)NC1=O [10a] (cyclo(L[dP]YL[X2]))
11

* * *

Can you tell me remaining at 2 min for the items I'm about to list?
target: pepsin (Sus scrofa, UniProt P00791); test: in vitro; conditions: simulated gastric fluid, pH 1.2
Non-standard residues stand in square brackets, D forms with d. Residues, ends and D or L forms follow the SMILES beside them. NMeY = CN[C@@H](Cc1ccc(O)cc1)C(=O)O; NMeL = CN[C@@H](CC(C)C)C(=O)O; dNMeL = CN[C@H](CC(C)C)C(=O)O
Hi! Could you send only the number? It should be in %, unit omitted.

May I ask what remaining at 2 min has been recorded for CC(C)C[C@@H]1NC(=O)[C@@H](CC(C)C)N(C)C(=O)[C@H](CC(C)C)NC(=O)[C@H](Cc2ccc(O)cc2)NC(=O)[C@H]2CCCN2C(=O)[C@H](CC(C)C)NC1=O [10g] (cyclo(LL[dP]YL[dNMeL])) ?
85

Using the record for CC(C)C[C@@H]1NC(=O)[C@@H](CC(C)C)NC(=O)[C@H](CC(C)C)N(C)C(=O)[C@H](Cc2ccc(O)cc2)NC(=O)[C@H]2CCCN2C(=O)[C@H](CC(C)C)NC1=O [10k] (cyclo(LL[dP]Y[NMeL][dL])) , report its remaining at 2 min.
97

Item under review: CC(C)C[C@@H]1NC(=O)[C@H](Cc2ccc(O)cc2)NC(=O)[C@H]2CCCN2C(=O)[C@H](CC(C)C)NC(=O)[C@H](CC(C)C)N(C)C(=O)[C@@H](CC(C)C)NC1=O [10h] (cyclo(L[dL][NMeL]L[dP]Y)) . Reported remaining at 2 min?
97

remaining at 2 min for CC(C)C[C@@H]1NC(=O)[C@H](Cc2ccc(O)cc2)NC(=O)[C@H]2CCCN2C(=O)[C@H](CC(C)C)N(C)C(=O)[C@H](CC(C)C)NC(=O)[C@@H](CC(C)C)NC1=O [10i] (cyclo(L[NMeL][dP]YL[dL])) ?
86

Give its remaining at 2 min value. Item: CC(C)C[C@@H]1NC(=O)[C@@H](CC(C)C)NC(=O)[C@H](CC(C)C)NC(=O)[C@H](Cc2ccc(O)cc2)N(C)C(=O)[C@H]2CCCN2C(=O)[C@H](CC(C)C)NC1=O [10j] (cyclo(LL[dP][NMeY]L[dL]))
86

* * *

Would you mind telling me the reported half-life of each entry?
biological target: pepsin (Sus scrofa, UniProt P00791); assay: in vitro; settings: simulated gastric fluid, pH 1.2
Starred links: 1 amine or outer side, 2 acyl side, 3 side chain; linkers in the order of their positions; H or OH if unused. Non-standard residues stand in square brackets, D forms with d. Residues, ends and D or L forms follow the SMILES beside them. X1 = CC(C)C[C@H](NC(=S)[C@H](Cc1ccc(O)cc1)N[*:1])C(=O)[*:2]; X6 = O=C([C@H](Cc1ccc(O)cc1)NC(=S)[C@H]1CCCN1[*:1])[*:2]; X2 = CC(C)C[C@H](NC(=S)[C@@H](CC(C)C)N[*:1])C(=O)[*:2]; X3 = CC(C)C[C@H](N[*:1])C(=S)N[C@H](CC(C)C)C(=O)[*:2]; X5 = CC(C)C[C@H](NC(=S)[C@H](CC(C)C)N[*:1])C(=O)[*:2]; X4 = CC(C)C[C@H](N[*:1])C(=S)N1CCC[C@@H]1C(=O)[*:2]; NMeY = CN[C@@H](Cc1ccc(O)cc1)C(=O)O; NMeL = CN[C@@H](CC(C)C)C(=O)O; dNMeL = CN[C@H](CC(C)C)C(=O)O
# unit: min | format: bare number

Fill in: half-life of CC(C)C[C@@H]1NC(=O)[C@H](Cc2ccc(O)cc2)NC(=O)[C@H]2CCCN2C(=O)[C@H](CC(C)C)NC(=O)[C@H](CC(C)C)NC(=S)[C@@H](CC(C)C)NC1=O [10a] (cyclo(L[dP]YL[X2])) is ___
42

half-life lookup needed for CC(C)C[C@@H]1NC(=O)[C@@H](CC(C)C)NC(=O)[C@H](CC(C)C)NC(=O)[C@H](Cc2ccc(O)cc2)N(C)C(=O)[C@H]2CCCN2C(=O)[C@H](CC(C)C)NC1=O [10j] (cyclo(LL[dP][NMeY]L[dL])) , thanks.
22

Requested field: half-life. Item: CC(C)C[C@@H]1NC(=O)[C@@H](CC(C)C)NC(=O)[C@H](CC(C)C)N(C)C(=O)[C@H](Cc2ccc(O)cc2)NC(=O)[C@H]2CCCN2C(=O)[C@H](CC(C)C)NC1=O [10k] (cyclo(LL[dP]Y[NMeL][dL]))
105

Give its half-life value. Item: CC(C)C[C@@H]1NC(=O)[C@H](Cc2ccc(O)cc2)NC(=O)[C@H]2CCCN2C(=O)[C@H](CC(C)C)N(C)C(=O)[C@H](CC(C)C)NC(=O)[C@@H](CC(C)C)NC1=O [10i] (cyclo(L[NMeL][dP]YL[dL]))
17.5

May I ask what half-life has been recorded for CC(C)C[C@@H]1NC(=O)[C@@H](CC(C)C)NC(=S)[C@H](CC(C)C)NC(=O)[C@H](Cc2ccc(O)cc2)NC(=O)[C@H]2CCCN2C(=O)[C@H](CC(C)C)NC1=O [10f] (cyclo(LL[dP]Y[X3])) ?
78

Look up half-life: CC(C)C[C@@H]1NC(=O)[C@@H](CC(C)C)NC(=O)[C@H](CC(C)C)NC(=S)[C@H](Cc2ccc(O)cc2)NC(=O)[C@H]2CCCN2C(=O)[C@H](CC(C)C)NC1=O [10e] (cyclo(LL[dP][X1][dL]))
230

GET /values?readout=half-life&item= CC(C)C[C@@H]1NC(=O)[C@H](Cc2ccc(O)cc2)NC(=O)[C@H]2CCCN2C(=S)[C@H](CC(C)C)NC(=O)[C@H](CC(C)C)NC(=O)[C@@H](CC(C)C)NC1=O [10c] (cyclo(L[dL]L[X4]Y))
20

Field request: half-life | item: CC(C)C[C@@H]1NC(=O)[C@H](Cc2ccc(O)cc2)NC(=O)[C@H]2CCCN2C(=O)[C@H](CC(C)C)NC(=O)[C@H](CC(C)C)NC(=O)[C@@H](CC(C)C)NC1=O [compound 10, cyclo(-D-Leu^1-Leu-Leu-D-Pro-Tyr-Leu^6-)] (cyclo(LL[dP]YL[dL]))
12

# lookup: half-life of CC(C)C[C@@H]1NC(=O)[C@@H](CC(C)C)N(C)C(=O)[C@H](CC(C)C)NC(=O)[C@H](Cc2ccc(O)cc2)NC(=O)[C@H]2CCCN2C(=O)[C@H](CC(C)C)NC1=O [10g] (cyclo(LL[dP]YL[dNMeL]))
19.5

I am curious: what half-life value has been reported for CC(C)C[C@@H]1NC(=O)[C@H](Cc2ccc(O)cc2)NC(=S)[C@H]2CCCN2C(=O)[C@H](CC(C)C)NC(=O)[C@H](CC(C)C)NC(=O)[C@@H](CC(C)C)NC1=O [10d] (cyclo(LL[X6]L[dL])) ?
24

So what does the record say about half-life for CC(C)C[C@@H]1NC(=O)[C@H](Cc2ccc(O)cc2)NC(=O)[C@H]2CCCN2C(=O)[C@H](CC(C)C)NC(=S)[C@H](CC(C)C)NC(=O)[C@@H](CC(C)C)NC1=O [10b] (cyclo(L[dL][X5][dP]Y)) ?
17
